Ref: patent US20160279221A1

Consider the following binders and their measured IC30 concentration (30% inhibition against the 3D7 target parasites, GIA) readings.
# targetUnderTest: AMA1 on P. falciparum 3D7 strain parasites (Plasmodium falciparum)
# testSummary: cell-based or functional assay
Quick reminder: number only, in µg/mL, skip the unit.

According to the records, this binder monoclonal antibody 1E10 (antibody, V domains shown, Mouse monoclonal raised against QV, purified from ascites on Protein G; also called mAb 1E10; Monoclonal 1E10) VH: EVQLQESGAELAKPGASVKLSCKASGYTFTNYLMHWIKQRPGQGLEWIGYINHGSGYTNYNQKFIDRATLTADKSSSTAYMQLRSLTYEDSAVYYCVHGYFDVWGTGTTVTVSS VL: QIVLTQSPTIMSASPGEKVTMTCSASSSVTYMHWYQQKPGTSPKRWIYDTSKLASGVPARFSGSGSGTSYSLTISSMEAEDAATYYCHQRSSYPTFGGGTKLEIKR displays IC30 concentration (30% inhibition against the 3D7 target parasites, GIA) of 1900

According to the records, this binder monoclonal antibody 4E11 (antibody, V domains shown) VH: EVQLQESGPGLVRPSQSLSITCTVSGFSLPLYGVHWVRQSPGKGLEWLGVIWSGGSTDYNAAFVSRLSISKDNSKSQVFFEMNSLQADDTATYYCARNNGYYVDAMDYWGQGTSVTVSS VL: DVVMTQTPLSLPVSLGDQASISCRSSQSLVHSNGNTYLHWYLQKPGQSPKLLIFKVSNRFSGVPDRFSGSGSGTDFTLQISRVEAEDLGFYFCSQSTHVPTFGGGTKLEIKR displays IC30 concentration (30% inhibition against the 3D7 target parasites, GIA) of 220

According to the records, this binder monoclonal antibody 1B10 (antibody, V domains shown) VH: EVQLQESGPGLVQPSQSLSITCTVSGFSLNMYGVHWVRQSPGKGLEWLGVIWSGGTTDYNAAFISRLSINRDNSKSQVFFKMNSLQTDDTAIYYCVRNNGYYVDAMDYWGQGTSVAVSS VL: DVVMTQTPLSLPVSLGDQASISCRSSQSLVHSNGNTYLHWYLQRPGQSPKLLIYKVSNRFSGVPDRFSGSGSGTDFTLKISRVEAEDLGVYFCSQSTLGPTFGGGTKLEMQR displays IC30 concentration (30% inhibition against the 3D7 target parasites, GIA) of 150
